Hey, just so you know, these numbers are from patent US7067538B2.

System: MCP-1 receptor (300-19 cell membranes) (Homo sapiens, UniProt P41597)
Construct: host or cells: 300-19 cells (membrane preparation)
Sequence (P41597 whole entry): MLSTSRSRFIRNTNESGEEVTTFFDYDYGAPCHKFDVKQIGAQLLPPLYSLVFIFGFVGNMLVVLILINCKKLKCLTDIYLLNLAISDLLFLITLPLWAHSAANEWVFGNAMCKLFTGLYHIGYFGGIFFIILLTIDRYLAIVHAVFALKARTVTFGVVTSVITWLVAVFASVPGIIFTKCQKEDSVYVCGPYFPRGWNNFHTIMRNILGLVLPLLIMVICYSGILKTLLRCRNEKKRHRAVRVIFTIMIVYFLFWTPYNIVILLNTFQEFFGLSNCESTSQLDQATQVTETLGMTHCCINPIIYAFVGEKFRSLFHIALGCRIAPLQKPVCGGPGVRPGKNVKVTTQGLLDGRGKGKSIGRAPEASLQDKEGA
Assay Name: Inhibition of binding of 125I-MCP-1 to 300-19 cell membranes
Recorded Conditions: 300-19 cell membranes 1.0 μg/well, 125I-MCP-1 0.15 nM, 3 hours at room temperature; read-out: IC50 of the inhibition of the binding of the iodinated MCP-1
# if measured IC50 < 200 nM: true  # else: false

Molecule: O=S(=O)(CC(O)(O)C(F)(F)F)C(c1ccc(C(F)(F)F)cc1)c1ccc(C(F)(F)F)cc1 [Example 29]
Label Class: false
--
Molecule: O=C(Cc1ccccc1)CS(=O)(=O)C(c1ccc(Cl)cc1)c1ccc(Cl)cc1 [Example 9]
Label Class: false
--
Molecule: O=C(CS(=O)(=O)C(c1ccc(Cl)cc1)c1ccc(Cl)cc1)C(F)F [Example 8]
Label Class: true
--
Molecule: COC(=O)CC(=O)CS(=O)(=O)C(c1ccc(Cl)cc1)c1ccc(Cl)cc1 [Example 22]
Label Class: false
--
Molecule: O=C(CBr)CS(=O)(=O)C(c1ccc(Cl)cc1)c1ccc(Cl)cc1 [Example 3]
Label Class: true
--
Molecule: O=S(=O)(CC(O)(O)C(F)(F)F)C(c1ccc(Cl)cc1)c1ccc(Cl)c(Cl)c1 (stereo not drawn) [Example 30]
Label Class: true
--
Molecule: O=C(CS(=O)(=O)C(c1ccc(Cl)cc1)c1ccc(Cl)cc1)c1ccccn1 [Example 34]
Label Class: false
--
Molecule: Cn1ccnc1C(=O)CS(=O)(=O)C(c1ccc(Cl)cc1)c1ccc(Cl)cc1 [Example 16]
Label Class: false
--
Molecule: O=C(CS(=O)(=O)C(c1ccc(Cl)cc1)c1ccc(Cl)cc1)C(F)(F)F [Example 4]
Label Class: true
--
Molecule: O=C(CF)CS(=O)(=O)C(c1ccc(Cl)cc1)c1ccc(Cl)cc1 [Example 7]
Label Class: true
--
Molecule: O=C(Cc1ccc(F)cc1)CS(=O)(=O)C(c1ccc(Cl)cc1)c1ccc(Cl)cc1 [Example 33]
Label Class: false
--
Molecule: O=C(CS(=O)(=O)C(c1ccc(Cl)cc1)c1ccc(Cl)cc1)c1ccco1 [Example 5]
Label Class: false

###

Assay Name: Pharmacokinetics in rats after intravenous infusion and oral gavage
Type: in vivo
Recorded Conditions: rat, in vivo, iv, 0.5 mg/kg
Protocol: The compound of Example 4, 3-[Bis-(4-chloro-phenyl)-methanesulfonyl]-1,1,1-trifluoro-propan-2-one, was administered to rats via a 5-minute intravenous infusion at 0.175 mg/mL (solution in 5% DMA/95% Tris base (50 mM in water)) and oral gavage at 0.35 mg/mL (suspension in 5% (w/v) PEG 200/95% (w/v) methylcellulose (0.5%)). Following intravenous administration of a 0.5 mg/kg dose to rats, the systemic clearance was about 0.06 mL/min/kg and the volume of distribution was about 0.2 L/kg. […]

Structure As Smiles: O=C(CS(=O)(=O)C(c1ccc(Cl)cc1)c1ccc(Cl)cc1)C(F)(F)F
clearance: ~3.6 mL/h/kg

###

Assay Name: Pharmacokinetics in rats after intravenous infusion and oral gavage
Format: in vivo
Recorded Conditions: rat, in vivo, iv, 0.5 mg/kg
Property Name: Vd

Structure As Smiles: O=C(CS(=O)(=O)C(c1ccc(Cl)cc1)c1ccc(Cl)cc1)C(F)(F)F
Result: ~0.2 L/kg
